Data origin, for the record: ChEMBL document CHEMBL5724796

target: Fibroblast growth factor receptor 2 (Homo sapiens) (UniProt P21802); conditions: Compound concentration 20.0 uM
Sequence (P21802 22-821 limits assumed): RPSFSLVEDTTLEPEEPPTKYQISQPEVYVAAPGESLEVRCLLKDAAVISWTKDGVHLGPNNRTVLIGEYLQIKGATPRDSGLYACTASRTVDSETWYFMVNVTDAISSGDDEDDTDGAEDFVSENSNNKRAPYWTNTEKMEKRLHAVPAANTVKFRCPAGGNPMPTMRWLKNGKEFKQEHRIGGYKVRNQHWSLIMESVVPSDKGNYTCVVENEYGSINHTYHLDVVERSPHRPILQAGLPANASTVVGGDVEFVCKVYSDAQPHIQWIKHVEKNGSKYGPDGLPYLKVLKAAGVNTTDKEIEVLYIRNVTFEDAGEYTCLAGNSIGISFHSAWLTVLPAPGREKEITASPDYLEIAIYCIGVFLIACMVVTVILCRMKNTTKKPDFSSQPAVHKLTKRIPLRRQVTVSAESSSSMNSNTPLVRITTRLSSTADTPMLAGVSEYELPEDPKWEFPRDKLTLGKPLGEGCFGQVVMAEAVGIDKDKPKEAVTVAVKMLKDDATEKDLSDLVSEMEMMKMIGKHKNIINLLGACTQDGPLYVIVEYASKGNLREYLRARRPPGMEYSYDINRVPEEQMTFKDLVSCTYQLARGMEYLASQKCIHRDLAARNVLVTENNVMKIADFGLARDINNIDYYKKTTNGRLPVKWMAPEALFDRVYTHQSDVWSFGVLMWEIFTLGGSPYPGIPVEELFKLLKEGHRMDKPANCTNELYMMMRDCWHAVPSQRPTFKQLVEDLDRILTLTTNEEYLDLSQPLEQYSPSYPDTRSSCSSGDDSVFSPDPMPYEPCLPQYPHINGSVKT
Description: Thermal Shift Assay. Domain: start/stop: T457-E768
// values below are reported ΔTm
Property Label: ΔTm (°C)

CN1Cc2c(Cl)cc(Cl)cc2[C@H](c2cccc(S(=O)(=O)NCCOCCOCCNC(=O)NCCCCNC(=O)NCCOCCOCCNS(=O)(=O)c3cccc([C@@H]4CN(C)Cc5c(Cl)cc(Cl)cc54)c3)c2)C1    -0.42
Cn1nc(C(C)(C)C)cc1C(=O)NC(Cc1cccc(Cl)c1)C(=O)NCC#N (stereo unspecified)    0.05
Cc1cc(C(=O)CN2CCC(O)CC2)c(C)n1-c1ccc(C#N)cc1    -0.17
CC(=O)O[C@]1(C(C)=O)CC[C@H]2[C@@H]3C=C(Cl)C4=CC(=O)[C@@H]5C[C@@H]5[C@]4(C)[C@H]3CC[C@@]21C    0.57
CCC1CCCCN1C(=O)n1ncc(C(O)(c2ccccc2)c2ccccc2)n1 (stereo unspecified)    -0.25
CC#C[C@]1(O)CC[C@H]2[C@@H]3CCC4=CC(=O)CCC4=C3[C@@H](c3ccc(N(C)C)cc3)C[C@@]21C    0.14
